Where do these numbers come from? They come from PubChem BioAssay.

# target-system: NADPH oxidase 2 (Homo sapiens)
# measurement-protocol: compounds shifting NOX2 Amplex Red fluorescence – cell-based, HEK293-NOX2, PMA-stimulated, NOX inhibitor project, primary screen (AID 1159); further: test concentration not given here
# experimental-setup: 45 min, higher = more signal, called active from +8 up or from −8 down
Class (required): determined from z-score; valid ranges are lower = under -2, middle = from -2 up to -0.1, upper = -0.1 and over

{"columns": ["molecule", "label-value"],
 "data": [
  ["CC(C)c1nc2cc(Br)ccc2c(=O)o1", "middle"],
  ["CO[C@H]1O[C@H](CO)[C@@H](OC(=O)Nc2ccc3c(c2)OCO3)[C@H](OC(=O)Nc2ccccc2-c2ccccc2)[C@H]1OC(=O)Nc1ccccc1-c1ccccc1", "lower"],
  ["CCCNC(=O)[C@@]1(c2ccc([N+](=O)[O-])cc2)CC(=O)N(C(C)C)[C@@H]1c1ccc(CO)cc1", "middle"],
  ["CC(C)=CCCC=C(C)C(O)C1C=CC2C(=O)N(c3ccccc3)C(=O)C2N1Nc1ccc(C#N)cc1 (stereo not given)", "middle"],
  ["CC(C)C[C@@H]1NC(=O)[C@@H]2C[C@H](C(=O)NCCCCCCNC(=O)CS)[C@H](c3cccc(OCCO)c3)N2C1=O", "upper"],
  ["O=C1[C@H]2C=C(I)[C@H](C[C@@H]2OCCCCCCO)[C@@]12CO2", "middle"],
  ["CCCCCCc1nc(Cc2cc(OC)c(OC)c(OC)c2)cc2c1[Si](C(C)C)(C(C)C)O[C@H]2c1ccccc1", "middle"],
  ["COCCCNC(=O)[C@@]1(CCC(=O)OC(C)(C)C)COC(c2ccc(OCCCO)cc2)=N1", "lower"],
  ["O=C1O[C@H](Cc2ccccc2)[C@@H]2[C@H]3C=CCCC=C3CN2[C@H]1Cc1ccc(O)cc1", "lower"],
  ["CCCC=C(CCC)[C@@H](NC(=O)OCC(C)C)c1ccc(C(=O)OC)cc1", "upper"],
  ["COc1ccc([Si](C)(C)[C@H]2[C@H](CC(=O)N3Cc4ccccc4C[C@H]3CO)O[C@@]3(C(=O)N(C)c4c(Br)cc(C)cc43)[C@@H]2C)cc1", "upper"],
  ["C=C(C)[C@@H]1CC=C(C(O)C2C=CC3C(=O)N(c4ccccc4)C(=O)C3N2Nc2ccc([N+](=O)[O-])cc2)CC1 (stereo not given in full)", "middle"],
  ["COc1ccc([Si](C)(C)[C@H]2[C@H](CC(=O)N3CCC[C@H]3CO)O[C@@]3(C(=O)N(Cc4ccc(N5CCCCC5=O)cc4)c4ccccc43)[C@@H]2C)cc1", "upper"]
]}

====

# Test system: Sonic hedgehog protein (Shh)
# measurement-protocol: Sonic hedgehog microarray binding compounds – biochemical, small-molecule microarray, 635/667 nm fluorescence, primary screen (AID 1151);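 further: Shh protein binding to compounds spotted on small-molecule microarray slides; score combines spot fluorescence intensity with signal-to-noise across triplicate slides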
# experimental-setup: 635 nm fluorescence, higher = more signal

{"columns": ["compound", "composite z-score"],
 "data": [
  ["O=C1C2C=CC(C(O)C3CCCCC3)N(n3cnnc3)C2C(=O)N1Cc1ccccc1 (stereo not drawn)", 1.65],
  ["C=C(COC)C(=O)CC[C@@H](OC(=O)c1ccccc1-c1ccccc1C(=O)O)c1ccc(OCCO)cc1", 1.86],
  ["O=C1C2C=CC(C(O)c3cccs3)N(Nc3ccc([N+](=O)[O-])cc3)C2C(=O)N1c1ccccc1 (stereo not drawn)", -0.441],
  ["C[N+](C)(C)CCCCNC(=O)[C@H]1C[C@H]2C(=O)N[C@@H](Cc3ccccc3)C(=O)N2[C@H]1c1cccc(OCCO)c1", 2.23],
  ["CCOC(=O)c1cn(C[C@H](Cc2ccccc2)NC(=O)N[C@H](CO)CCc2oc(C(C)=O)c(C(=O)OC)c2C(=O)OC)nn1", 1.63],
  ["C=CCN1Cc2ccccc2[C@H]2OC(c3ccc(OCCCO)cc3)=N[C@@]2(CCS(=O)(=O)c2ccccc2)C1=O", 1.28],
  ["CCCCCC1=C2CNC(CC(C)C)(C(=O)OC)C=C2C(C)C1=O (stereo not drawn)", -0.242],
  ["CC(C)N1C(=O)c2ccccc2[C@@H](C(=O)NCC(F)(F)F)[C@@H]1c1ccc(CO)cc1", 0.119]
]}
